Where do these numbers come from? They come from patent US5972599.

target: IL-4 (Homo sapiens, UniProt P05112 P05112:25-153); assay: competition; 0.7 nM 125I-IL-4, H-9 cells; conditions: tags: R&D Systems
Sequence (P05112 25-153, one chain of several): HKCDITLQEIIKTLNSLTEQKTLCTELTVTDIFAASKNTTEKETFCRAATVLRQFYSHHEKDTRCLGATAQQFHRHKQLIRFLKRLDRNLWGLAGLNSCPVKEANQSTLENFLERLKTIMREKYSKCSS
experimentalReadout: IC50

## Task Quick one: IC50 for IL-4 2'F/NH2-9 (ssRNA, 2'-F all C, 2'-NH2 all U) RNA: GGGAGACAAGAAUAAACGCUCAAAGAGUGCAGGUCUGGGGCGCCACAAUUACAACGGCAAUAAUUCGACAGGAGGCUCACAACAGGC ?
## Result ~40 nM
